B1: ZC3H15 (parent)
chain: RKADFKAGKALVISGREVFEFRPE

- Variants of: B1
- experimentDescription: protein stability index of a GFP-peptide fusion (GPS, HEK-293T) (PSI 1-6); higher = more stable;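 note: lentivirally expressed fusions sorted by FACS into six bins by GFP to DsRed ratio, PSI derived from sequencing read proportions per bin multiplied by bin number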
- runParameters: c terminus: a fixed tail appended
measuredQuantity: protein stability index

Recorded protein stability index for "G8V" , please?
2.16

Let us now turn to "G8F"
1.93

Let us now turn to "R1I"
1.58

Let us now turn to "I13Y"
2.77

Let us now turn to "A7P"
3.2

Let us now turn to "F19N"
4.05

Let us now turn to "L11F"
2.65

Let us now turn to "R1Q"
2.99

Let us now turn to "D4H"
2.15

Let us now turn to "E20H"
2.13

Let us now turn to "A3W"
2.51
